Hey, just so you know, these numbers are from the supplement of paper PMC10567573.

B1: CSTF3 (parent)
chain: YVPEKVKKAEKKLEENPYDLDAWS

- Variants of: B1
- PROCEDURE SUMMARY: protein stability index of a GFP-peptide fusion (GPS, HEK-293T) (PSI 1-6); higher = more stable;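 further: lentivirally expressed fusions sorted by FACS into six bins by GFP to DsRed ratio, PSI derived from sequencing read proportions per bin multiplied by bin number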
- MEASUREMENT PARAMETERS: c terminus: a fixed tail appended
Please enter yes where protein stability index is greater than or equal to 2, and no where it is lower.

- YVPEKVKKCEKKLEENPYDLDAWS [A9C]: yes
- YVPEKVKKAEKKLEENGYDLDAWS [P17G]: yes
- YVPEKVKKAEKKLEEPPYDLDAWS [N16P]: no
- YVPEKVKKAEKKKEENPYDLDAWS [L13K]: yes
- YVPEKVMKAEKKLEENPYDLDAWS [K7M]: no

Q: # check: protein stability index of YVPTKVKKAEKKLEENPYDLDAWS [E4T] is greater than or equal to 2
Result: yes

Q: # check: protein stability index of YVPEKVKKAEKELEENPYDLDAWS [K12E] is greater than or equal to 2
Result: yes
